- Test system: MS2 coat protein
- test-name: apparent KD of MS2 coat protein; designed switch direction (-1 OFF switch, 1 ON switch): 1; higher = weaker reporter binding
- test-parameters: input ligand: none
value-type: apparent KD of MS2 coat protein (nM)
Kindly provide the numeric value in nM only, without the unit symbol.

Before answering, review these 4 worked examples.
| construct-sequence | apparent KD of MS2 coat protein [nM] |
| --- | --- |
| ACAUGAGAGAUAGGAUAUUGUGUACCUACAUGUGACAUGAGGAUCACCCAUGUGGUAAGUAUGAGCAAGAAGGAUCAGAUAUGU [Equivalance 51 - Jieux - Same State NG 2] (Eterna round: R96, puzzle: Same State NG 2) | 69.5 |
| UGUUAGUAGACAGGAUAUUGAAUGUUAAGUAUUAACAUGAGGAUCACCCAUGUAUUAGAUUGGUACAAGAAGGGUCAAGUAAGU [JR_SSNG2_Sub011] (Eterna round: R96, puzzle: Same State NG 2) | 247 |
| AUUAUUAAUGCAGGAUAUGAUUAACAUGAGGAUCACCCAUGUGGUGUUGUGAGUAAGGAGAGAGAUCAGAAGGGCAUUUUUUUU [JMF's solution 5] (Eterna round: R96, puzzle: Same State NG 2) | 361 |
| GCGAGUGCCACAGGAUAUUCGGCUGUUUCGCUCGAAGAAGGGUGCCGCAUGCAAUAAAGAAAACAUGAGGAUCACCCAUGUGAA [Uszavege] (Eterna round: R96, puzzle: Same State NG 1) | 418 |

Attention now turns to another entry.
Enter apparent KD of MS2 coat protein (test system MS2 coat protein) for UUGAUUAACGUAGGAUAUCGACCUACAUGAGGAUCACCCAUGUCUUUGUAUAGUUUUUUUUGUUACGAGAAGGACGUUAUGUAU [JR_SSNG2_Sub067] (Eterna round: R96, puzzle: Same State NG 2)
106

---

The sequences listed here are annotated with their apparent KD of MS2 coat protein.
- System: MS2 coat protein
- test-name: apparent KD of MS2 coat protein; designed switch direction (-1 OFF switch, 1 ON switch): -1; higher = weaker reporter binding
- test-parameters: Eterna round: R95; input ligand: none

Respond only with apparent KD of MS2 coat protein recorded for UUUUUAGUGCUUUUUAAGUACAUGAGGAUCACCCAUGUACUUGUCUGGUGGUCCGGACAAGCUUUUUGCUCGUCUAA [Sensor v3 - turn-off variant 1 - 1] (puzzle: Sensor v3, turn-off variant 1)
59.7 nM

Respond only with apparent KD of MS2 coat protein recorded for AAUAAAGGAGGAUAUACAUGAGGAUCACCCAUGUGAAUAAAAUAAAUAAAAUGAUAAAGUAGAAGGCCUAAUAA [JMF's solution 3] (puzzle: Exclusion 3)
49.7 nM

Respond only with apparent KD of MS2 coat protein recorded for GAGAAUUUAUAGGAUAUCGUAUGGAUAAUUUAACGAGAAGGAUGAACAUGAGGAUCACCCAUGUGGUAUCAUGG [JL-ex6-3.14] (puzzle: Exclusion 6)
247 nM

Respond only with apparent KD of MS2 coat protein recorded for AAAGGCUAAGGAUAUGCACACAUAAACAUGAGGAUCACCCAUGUGUUCCCAGCAACCAUAGCAGAAGGUAGCGAAA [Rarebeve] (puzzle: Exclusion 5)
68.7 nM

Respond only with apparent KD of MS2 coat protein recorded for AGUACUAACACGAAAGUGUUAGUACAAUAAGCUUGUGAAACAUGAGGAUCACCCAUGUCCUCAUAAGCUCGUCUUGU [salish99_TOv2_r3_009] (puzzle: Sensor v3, turn-off variant 2)
13.7 nM

---

- Test system: MS2 coat protein
- test-name: apparent KD of MS2 coat protein; designed switch direction (-1 OFF switch, 1 ON switch): 1; higher = weaker reporter binding
- test-parameters: input ligand: none
Class key for apparent KD of MS2 coat protein values: 0 (below 50 nM), 1 (50 nM to below 200 nM), 2 (200 nM or more)

Consider the following illustrative entries.
| construct-sequence | assigned-label |
| --- | --- |
| UCGAGCGUACUUGCAGACAUGAGGAUCACCCAUGUAAAUGGGAAGGAUAUGGUACCGUUUCGGUACCAGAAGGUCCUACGUGCU [salish99_SSNG3_r04_305] (Eterna round: R96, puzzle: Same State NG 3) | 1 |
| GGUGGGUUACUACCAACACAUGAGGAUCACCCAUGUUUUGGGAAGGAUAUGGUACCUAUUUGGUACCAGAAGGUCCGGUUGGUG [salish99_SSNG3_r04_704] (Eterna round: R96, puzzle: Same State NG 3) | 1 |
| ACAUGAGGAUCACCCAUGUCGCUGGUAUCGGAUACGUAUUACGAGGAUAUGCCGAGGAGUUCCGAGUAGAAGGUGUAAUACAUG [Eternabot solution 40] (Eterna round: R96, puzzle: Same State NG 3) | 1 |

Band assignment needed for UAGAAACAUGAGGAUCACCCAUGUGGGUUAAACACAGGAUAUCACGCCAAAAGAAAAGCGUGAGAAGGGUGACCGA [Xeusisus] (Eterna round: R96, puzzle: Same State 1) please.
1

Band assignment needed for CUGAGCAAUCGAGGAUAUCACGUCGUUUAGACGUGAGAAGGCGAUCAUAACAUGAGGAUCACCCAUGUAUUACAUGAAGCUCAG [SSNG1/4-A3] (Eterna round: R96, puzzle: Same State NG 1) please.
0

Band assignment needed for CCGGUUUAUGGAGGAUAUGGAGCCUUAUUGGCUCCAGAAGGCUAAACAUGAGGAUCACCCAUGUUACCGGCGGUCAAUAGACCG [Eli NG1ss - 60] (Eterna round: R96, puzzle: Same State NG 1) please.
0

Band assignment needed for UCUAUUGUGGUAGGAUAUCUAGGAUAUGGGAAGAGCUAAGCUUGGAAGUCACUUCACCCAGAAGGAGAGAAGGACCACACACUU [pwkr ssNG2 2FMN + F9.8] (Eterna round: R96, puzzle: Same State NG 2) please.
2

Band assignment needed for GUACAGAUUAUAGGAUAUCACGUCGUUUAGACGUGAGAAGGAUAAUCACACAUGAAUAUUAAUACAUGAGGAUCACCCAUGUAC [SSNG1/17-A3] (Eterna round: R96, puzzle: Same State NG 1) please.
0

Band assignment needed for AGCUAUUAAUCAGGAUAUAGGGACAUGAGGAUCACCCAUGUAUACAUGAUGAAAUGUGGUCACGUCUAGAAGGGAUUACUAACA [SameState NG2 #41] (Eterna round: R96, puzzle: Same State NG 2) please.
2

Band assignment needed for GCUAGAAUUAAAGCCAACAUGAGGAUCACCCAUGUAUGUUGGCAGGAUAUCGUUUGCUUUGCAAACGAGAAGGGCCAAACUAGC [JL SSNG3 1.01] (Eterna round: R96, puzzle: Same State NG 3) please.
1

Band assignment needed for GACCGCGAGGAAGGAUAUGGAGCCUAAUAGGCUCCAGAAGGUCCAUAAAGGACAUGAGGAUCACCCAUGUGGGCUGAAGCGGUC [Mat - Same State NG 1 - JL mod - D74] (Eterna round: R96, puzzle: Same State NG 1) please.
0

Band assignment needed for AUCCUAAACACAGGAUAUCCCAGUCAUGAUCUGGGAGAAGGGUGGCCACAUGAGGAUCACCCAUGUGAAGUGCCAGAGGCACGA [MOD3 Xexeraed] (Eterna round: R96, puzzle: Same State NG 1) please.
2

Band assignment needed for GGUCGGACUCACAUGAGGAUCACCCAUGUUCCGGAAACGGGAUAGGAUAUCUGUCCGAAAAGGUCAGAGAAGGGUCUACCGACC [Fiskers NG3ss - 55] (Eterna round: R96, puzzle: Same State NG 3) please.
2

Band assignment needed for GCUCGACGUAUUGUCUACAUGAGGAUCACCCAUGUAGGUGCGGAGGAUAUUUACGUGUCUCAUGUAGAGAAGGUCGUGUCGAGC [SameState NG3 #95] (Eterna round: R96, puzzle: Same State NG 3) please.
0

Band assignment needed for AGAUGUUAAUCAGGAUAUGGGCACAUGAGGAUCACCCAUGUAAAUUCGAUACUAUGUGGUCACGUCUAGAAGGGAUGGCUAACA [SameState NG2 #82] (Eterna round: R96, puzzle: Same State NG 2) please.
2

Band assignment needed for GCGAGCGUACUUGCUACAUGAGGAUCACCCAUGUUUUAUGGACAGGAUAUGGUACCGUUUCGGUACCAGAAGGGUCCACAUGUA [JL SSNG3 3.84] (Eterna round: R96, puzzle: Same State NG 3) please.
2

Band assignment needed for GUGGCGGGUUGAGGAUAUUGGUUGCCUAUGUUUUACAUGAGGAUCACCCAUGUGGGUUGCGGUUUCGAGAAGGUAGGUUGCUGG [salish99_SSNG2_r04_047] (Eterna round: R96, puzzle: Same State NG 2) please.
2

---

The sequences listed here are annotated with their apparent KD of MS2 coat protein.
- Tested on: MS2 coat protein
- test-name: apparent KD of MS2 coat protein; designed switch direction (-1 OFF switch, 1 ON switch): -1; higher = weaker reporter binding
- test-parameters: input ligand: none

Before answering, review these 2 worked examples.
| construct-sequence | apparent KD of MS2 coat protein |
| --- | --- |
| AAAUCGGUAGAGGAUAUUGUACAGGAAACGGUGCGAGAAGGCUACACAUGAGGAUCACCCAUGUUAAAUAGCGA [EX6 #55] (Eterna round: R97, puzzle: Exclusion 6) | 15.8 nM |
| AGUCAGGCGGUAGGAUAUCCAAACCGAGUGACCCUCUCAUAACAUGAGGAUCACCCAUGUCGGUGGGAGAAGGGCCGUACGGCG [Atra] (Eterna round: R96, puzzle: Exclusion NG 2) | 117 nM |

Respond only with apparent KD of MS2 coat protein recorded for GUAAACGAUGAGGAUAUAUGAUAUCAAAGCAUCAUAGAAGGCAUCACAUGAGGAUCACCCAUGUGAUCUUCUUG [Mat - Exclusion 6 - JL Mod - D30] (Eterna round: R97, puzzle: Exclusion 6)
31.3 nM

Respond only with apparent KD of MS2 coat protein recorded for AGUAUGCGAGGAUAUACAUGAGGAUCACCCAUGUGAGAGAUAAAAGUGAGAAAGACAAGUAGAAGGCGCGUACA [JL Lego Mod 23] (Eterna round: R96, puzzle: Exclusion 3)
81.1 nM

Respond only with apparent KD of MS2 coat protein recorded for AAGGAUAGAGGAUAUACAUAGAUACAGAUUCAUGUAGUCCUACAUGAGGAUCACCCAUGUAGAAGGCUAUCCUA [Fiskers Ex 2 - 12] (Eterna round: R96, puzzle: Exclusion 2)
18.7 nM
